Experiment: in vitro
Details: human, HEK293T WT Cell viability (% of controll), 0.6 μM, dose–response, individual replicates
measured-property: viability at 72 h, 0.6 µM (%)
Entry rule: numbers only, all in %.

# get_value(readout='viability at 72 h, 0.6 µM', item= Cc1ccccc1CN1C(=O)C2=C(CCN(Cc3ccccc3)C2)N2CCN=C12 [ONC201, reference compound] )
60

###

Provide the recorded Cell Viability (% of Control) 2.8 µM for the entries that follow.
Test system: Fadu cells
Experiment: CellTiter-Glo luminescent cell viability assay, Fadu
Conditions: Fadu; 2.8 µM; 72 h; second-set screening; mean ± SD, n = 2

Form field: Cell Viability (% of Control) 2.8 µM recorded for NCc1cccc(CN2C(=O)C3=C(CCN(Cc4ccc(-n5cc(-[c-]6cccc6)nn5)cc4)C3)N3CCN=C23)c1.[Fe+2].c1cc[cH-]c1 [37a] with Fadu cells (enter value)
106 ± 10 % of Control

Notebook entry, Fadu cells assay: Cell Viability (% of Control) 2.8 µM of NCC#Cc1ccc(CN2C(=O)C3=C(CCN(Cc4ccc(-n5cc(-[c-]6cccc6)nn5)cc4)C3)N3CCN=C23)cc1.[Fe+2].c1cc[cH-]c1 [I/A, reference compound] = ?
105 ± 9 % of Control

What measured Cell Viability (% of Control) 2.8 µM is associated with CN(C)CC#Cc1cccc(CN2C(=O)C3=C(CCN(Cc4ccc(-n5cc(-[c-]6cccc6)nn5)cc4)C3)N3CCN=C23)c1.[Fe+2].c1cc[cH-]c1 [39a] on Fadu cells?
99 ± 9 % of Control

For Fadu cells, provide Cell Viability (% of Control) 2.8 µM of CNCC#Cc1cccc(CN2C(=O)C3=C(CCN(Cc4ccc(-n5cc(-[c-]6cccc6)nn5)cc4)C3)N3CCN=C23)c1.[Fe+2].c1cc[cH-]c1 [38a] please.
85 ± 16 % of Control

Notebook entry, Fadu cells assay: Cell Viability (% of Control) 2.8 µM of O=C1C2=C(CCN(Cc3ccc(-n4cc(-[c-]5cccc5)nn4)cc3)C2)N2CCN=C2N1Cc1cccc(C#CCN2CCCCC2)c1.[Fe+2].c1cc[cH-]c1 [40a] = ?
105 ± 5 % of Control

Query for Fadu cells: what Cell Viability (% of Control) 2.8 µM does the record show for O=C1C2=C(CCN(Cc3ccc(-n4cc(-[c-]5cccc5)nn4)cc3)C2)N2CCN=C2N1Cc1cccc(C#CCN2CCOCC2)c1.[Fe+2].c1cc[cH-]c1 [42a] ?
121 ± 3 % of Control

Lookup: Cell Viability (% of Control) 2.8 µM / Fadu cells / NCC#Cc1cccc(CN2C(=O)C3=C(CCN(Cc4ccc(C(=O)N[c-]5cccc5)cc4)C3)N3CCN=C23)c1.[Fe+2].c1cc[cH-]c1 [33a]
99 ± 2 % of Control

Fill in the recorded Cell Viability (% of Control) 2.8 µM for this molecule, with Fadu cells as test system: NCC#Cc1cccc(CN2C(=O)C3=C(CCN(Cc4ccc(NC(=O)[c-]5cccc5)cc4)C3)N3CCN=C23)c1.[Fe+2].c1cc[cH-]c1 [23a]
109 ± 10 % of Control

For Fadu cells, provide Cell Viability (% of Control) 2.8 µM of NCC#Cc1cccc(CN2C(=O)C3=C(CCN(Cc4ccc(-n5cc(-[c-]6cccc6)nn5)cc4)C3)N3CCN=C23)c1.[Fe+2].c1cc[cH-]c1 please.
114 ± 8 % of Control
